Source listed as patent US9096548B2.

- TARGET_OF_ASSAY: ENaC (Epithelial Sodium Channel) (Mus musculus, UniProt Q61180+Q9WU38+Q9WU39)
- Construct: Mouse kidney M−1 cells were cultivated in DMEM; endogenous in cells; host or cells: Mouse kidney M-1 cells, cultivated with dexamethasone on transwell filters
- Sequence (Q61180 1-699): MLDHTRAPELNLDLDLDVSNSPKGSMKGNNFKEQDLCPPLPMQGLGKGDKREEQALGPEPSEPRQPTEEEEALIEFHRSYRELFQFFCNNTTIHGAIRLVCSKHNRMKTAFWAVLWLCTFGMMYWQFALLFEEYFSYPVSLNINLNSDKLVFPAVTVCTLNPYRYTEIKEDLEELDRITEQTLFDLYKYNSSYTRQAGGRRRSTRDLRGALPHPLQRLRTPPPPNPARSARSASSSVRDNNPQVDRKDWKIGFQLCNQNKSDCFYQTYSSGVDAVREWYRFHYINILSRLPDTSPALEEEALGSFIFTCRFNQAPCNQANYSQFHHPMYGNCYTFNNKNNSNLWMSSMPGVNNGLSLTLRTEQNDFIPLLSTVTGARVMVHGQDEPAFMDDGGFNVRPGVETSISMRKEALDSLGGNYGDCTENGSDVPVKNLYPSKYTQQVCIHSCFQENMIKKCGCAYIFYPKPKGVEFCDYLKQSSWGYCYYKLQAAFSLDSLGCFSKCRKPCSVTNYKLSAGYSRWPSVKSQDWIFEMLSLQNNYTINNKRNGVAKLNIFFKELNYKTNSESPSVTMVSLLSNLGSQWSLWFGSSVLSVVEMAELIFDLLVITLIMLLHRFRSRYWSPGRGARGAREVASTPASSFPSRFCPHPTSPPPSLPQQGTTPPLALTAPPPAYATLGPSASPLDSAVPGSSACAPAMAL
- Sequence (Q9WU38 1-638): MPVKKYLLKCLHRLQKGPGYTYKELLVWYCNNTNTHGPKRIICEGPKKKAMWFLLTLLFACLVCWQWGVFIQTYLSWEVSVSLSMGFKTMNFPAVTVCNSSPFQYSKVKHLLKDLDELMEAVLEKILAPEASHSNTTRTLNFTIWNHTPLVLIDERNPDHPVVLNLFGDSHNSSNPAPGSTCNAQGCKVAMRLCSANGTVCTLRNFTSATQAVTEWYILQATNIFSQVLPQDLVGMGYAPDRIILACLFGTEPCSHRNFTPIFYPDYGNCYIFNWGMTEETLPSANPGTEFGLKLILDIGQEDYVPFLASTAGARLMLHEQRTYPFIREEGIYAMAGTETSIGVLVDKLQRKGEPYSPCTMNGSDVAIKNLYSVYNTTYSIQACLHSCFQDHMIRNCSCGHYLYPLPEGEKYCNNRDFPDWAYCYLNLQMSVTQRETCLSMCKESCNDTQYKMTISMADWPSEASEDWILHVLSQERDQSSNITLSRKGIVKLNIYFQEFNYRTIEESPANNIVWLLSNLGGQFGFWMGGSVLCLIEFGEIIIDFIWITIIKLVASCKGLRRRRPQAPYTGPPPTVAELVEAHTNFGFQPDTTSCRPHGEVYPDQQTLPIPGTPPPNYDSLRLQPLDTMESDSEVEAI
- Sequence (Q9WU39 1-655): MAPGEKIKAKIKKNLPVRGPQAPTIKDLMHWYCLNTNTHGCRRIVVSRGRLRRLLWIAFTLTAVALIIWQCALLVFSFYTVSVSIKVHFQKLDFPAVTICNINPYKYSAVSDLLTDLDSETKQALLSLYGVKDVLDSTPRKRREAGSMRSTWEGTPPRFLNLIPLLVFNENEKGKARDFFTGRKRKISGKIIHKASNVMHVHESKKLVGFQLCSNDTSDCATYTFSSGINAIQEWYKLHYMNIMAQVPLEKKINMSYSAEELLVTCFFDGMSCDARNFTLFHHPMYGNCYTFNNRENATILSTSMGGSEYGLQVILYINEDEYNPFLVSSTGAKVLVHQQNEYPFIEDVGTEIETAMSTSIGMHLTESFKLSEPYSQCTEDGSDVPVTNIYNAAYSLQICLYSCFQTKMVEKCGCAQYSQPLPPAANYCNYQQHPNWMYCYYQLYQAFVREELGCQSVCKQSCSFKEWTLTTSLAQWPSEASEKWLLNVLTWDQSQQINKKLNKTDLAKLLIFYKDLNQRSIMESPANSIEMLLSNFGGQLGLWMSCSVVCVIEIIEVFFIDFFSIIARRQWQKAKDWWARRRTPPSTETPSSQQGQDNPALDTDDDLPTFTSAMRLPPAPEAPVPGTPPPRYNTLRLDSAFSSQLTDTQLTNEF
- ASSAY_PROCEDURE: Ussing Chamber assay (short circuit current, amiloride sensitive I_SC)
- Type: cell-based
- CONDITION_LABEL: Ussing chamber, mouse kidney M-1 cells, short circuit current; unit inferred; read-out: IC50
Where a name gives a salt, the structure may show the parent alone.
EXPERIMENTAL_READOUT: IC50 (nM)

Known IC50 results, listed for orientation:
| COMPOUND | TARGET_OF_ASSAY | IC50, nM |
| --- | --- | --- |
| Nc1nc(N)c(C(=O)NC2CCC[N+](CCCc3ccc(OCC(=O)NCCOCCOCCO)cc3)(CCCc3ccc(OCC(=O)NCCOCCOCCO)cc3)C2)nc1Cl (stereo not drawn) [Example 6.3, trifluoroacetate] | ENaC (Epithelial Sodium Channel) (Mus musculus, UniProt Q61180+Q9WU38+Q9WU39) | 103 |
| COC(=O)COc1ccc(CCC[N+]2(CCCc3ccc(OCC(=O)NCCOCCOCCO)cc3)CCCC(NC(=O)c3nc(Cl)c(N)nc3N)C2)cc1 (stereo not drawn) | ENaC (Epithelial Sodium Channel) (Mus musculus, UniProt Q61180+Q9WU38+Q9WU39) | 370 |
| COC(=O)COc1ccc(CCC[N+]2(CCCc3ccc(OCC(=O)NCCN(C)C)cc3)CCCC(NC(=O)c3nc(Cl)c(N)nc3N)C2)cc1 (stereo not drawn) [Example 8.1, hydrochloride] | ENaC (Epithelial Sodium Channel) (Mus musculus, UniProt Q61180+Q9WU38+Q9WU39) | 85 |
| COc1ccc(CCC[N+](C)(CCCc2ccc(OC)cc2)CC(NC(=O)c2nc(Cl)c(N)nc2N)c2ccccc2)cc1 (stereo not drawn) | ENaC (Epithelial Sodium Channel) (Mus musculus, UniProt Q61180+Q9WU38+Q9WU39) | 30 |
| CCOC(=O)C[N+]1(CCCc2ccc(OC)cc2)CCCC(NC(=O)c2nc(Cl)c(N)nc2N)C1 (stereo not drawn) | ENaC (Epithelial Sodium Channel) (Mus musculus, UniProt Q61180+Q9WU38+Q9WU39) | 150 |

P. Nc1nc(N)c(C(=O)NC2CCC[N+](CCCc3ccc(OCCOCCOCCO)cc3)(CCCc3ccc(OCCOCCOCCO)cc3)C2)nc1Cl (stereo not drawn)
Q. CN(C)CCOc1ccc(CCC[N+]2(CCCc3ccc(OCCN(C)C)cc3)CCC[C@H](NC(=O)c3nc(Cl)c(N)nc3N)C2)cc1 [Example 9.5, dihydrochloride]
R. COC(=O)C[C@@H](C[N+](C)(CCCc1ccc(OC)cc1)CCCc1ccc(OC)cc1)NC(=O)c1nc(Cl)c(N)nc1N
Exam item: Write the entries in order, lowest recorded IC50 first. Answer format: the labels, ordered as requested.
Marked response: R, Q, P
(R: 21 nM, Q: 63 nM, P: 95 nM)

1. Nc1nc(N)c(C(=O)NC2CCC[N+](CCCc3ccc(OCCOCCOCCOCCOCCO)cc3)(CCCc3ccc(OCCOCCOCCOCCOCCO)cc3)C2)nc1Cl (stereo not drawn)
2. Cn1ccnc1CNC(=O)COc1cccc(CCC[N+]2(CCCc3cccc(OCC(=O)NCc4nccn4C)c3)CCC[C@H](NC(=O)c3nc(Cl)c(N)nc3N)C2)c1
3. COC(=O)COc1ccc(CCC[N+]2(CCCc3ccc(OCC(=O)O)cc3)CCCC(NC(=O)c3nc(Cl)c(N)nc3N)C2)cc1 (stereo not drawn) [Example 8, trifluoroacetate]
Exam item: Thanks in advance: please rank these 3 entries by IC50, highest to lowest. Returns: the labels listed in the requested order.
Marked response: 3, 1, 2

P. COc1ccc(CCC[N+]2(CCCc3ccc(C(=O)NCCC(=O)O)cc3)CCCC(NC(=O)c3nc(Cl)c(N)nc3N)C2)cc1 (stereo not drawn)
Q. Nc1nc(N)c(C(=O)NC2CCC[N+](CCCc3cccc(O)c3)(CCCc3cccc(O)c3)C2)nc1Cl (stereo not drawn)
R. CCOc1ccc(CCC[N+]2(CCCc3ccc(OCC)cc3)CCCC(NC(=O)c3nc(Cl)c(N)nc3N)C2)cc1 (stereo not drawn)
S. COC(=O)C[C@H](C[N+](C)(CCCc1ccc(OC)cc1)CCCc1ccc(OC)cc1)NC(=O)c1nc(Cl)c(N)nc1N
T. Nc1nc(N)c(C(=O)N[C@H]2CCC[N+](CCCc3ccc(OCCOCCOCCOCCO)cc3)(CCCc3ccc(OCCOCCOCCOCCO)cc3)C2)nc1Cl
Exam item: Ranking field: IC50; order: falling. Rank them, then answer with their labels in that order.
Marked response: S, P, T, R, Q

1. COCCOc1ccc(CCC[N+]2(CCCc3ccc(OCCOC)cc3)CCCC(NC(=O)c3nc(Cl)c(N)nc3N)C2)cc1 (stereo not drawn)
2. Nc1nc(N)c(C(=O)N[C@H]2CCC[N+](CCCc3ccc(OCCO)cc3)(CCCc3ccc(OCCO)cc3)C2)nc1Cl
Exam item: Pick one, 1 or 2 : lowest reported IC50. Pick one and reply with its label.
Marked response: 1
(1: 22 nM, 2: 38 nM)
